Sourced from PubChem BioAssay (NCI)

System: SW-620 colon
procedure_summary: NCI tumour cell line growth inhibition, 48 h
parameter: TGI

line_notation=CCc1cccc(C(C)C)c1NC1=C([n+]2ccc(C)cc2)C(=O)c2ccccc2C1=O tested_system="SW-620 colon" result="> 100 µM"
line_notation=N=C1/C(=C/c2ccccc2)C(=O)N=C2SC=NN12 tested_system="SW-620 colon" result="> 100 µM"
line_notation=COc1ccc(Oc2nc(Nc3ccc(N4CCOCC4)cc3)ncc2NC(=O)Nc2cc(OC)cc(OC)c2)cc1 tested_system="SW-620 colon" result="> 33.3 µM"
line_notation=CC(=O)Nc1cc(C(c2ccccc2)c2ccccc2)cc(C(c2ccccc2)c2ccccc2)c1C tested_system="SW-620 colon" result="> 100 µM"
